Reported values of Activity for individual entries
molecular target: Vasopressin V1a receptor (Homo sapiens) (UniProt P37288); test: Agonist activity at recombinant human V1A receptor at 10 uM by aequorin reporter based assay relative to agonist; format: functional
Sequence (P37288 whole entry, looked up): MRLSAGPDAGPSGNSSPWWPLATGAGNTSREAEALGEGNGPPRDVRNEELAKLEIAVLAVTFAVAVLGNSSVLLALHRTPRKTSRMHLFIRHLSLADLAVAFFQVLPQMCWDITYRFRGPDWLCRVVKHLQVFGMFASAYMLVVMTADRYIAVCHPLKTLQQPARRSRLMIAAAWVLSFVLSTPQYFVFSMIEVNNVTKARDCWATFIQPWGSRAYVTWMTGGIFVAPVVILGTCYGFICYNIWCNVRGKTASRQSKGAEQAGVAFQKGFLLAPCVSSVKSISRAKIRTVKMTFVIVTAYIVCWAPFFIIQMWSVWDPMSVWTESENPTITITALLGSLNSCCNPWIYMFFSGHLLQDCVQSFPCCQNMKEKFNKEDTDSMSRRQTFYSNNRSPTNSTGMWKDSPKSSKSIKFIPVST
quantity: Activity (%)

[[record]]
smilestext = "CN(CCCNC(=O)c1ccc(Cl)cc1)CCc1ccccc1"
reportedvalue = 0

[[record]]
smilestext = "CN(CCNC(=O)c1ccc(C#N)cc1)Cc1ccccc1"
reportedvalue = 0

[[record]]
smilestext = "CN(CCCNC(=O)c1ccc(Br)cc1)Cc1ccccc1"
reportedvalue = 1

[[record]]
smilestext = "COc1ccc(C(=O)NCCCN(C)Cc2ccccc2)cc1"
reportedvalue = 0

[[record]]
smilestext = "CCCc1ccc(C(=O)NCCCN(C)Cc2ccccc2)cc1"
reportedvalue = 0

[[record]]
smilestext = "CN(CCCNC(=O)c1ccc(C(F)(F)F)cc1)Cc1ccccc1"
reportedvalue = 0

[[record]]
smilestext = "CN(CCNC(=O)c1ccc(Cl)cc1)Cc1ccccc1"
reportedvalue = 0

[[record]]
smilestext = "CN(CCCNC(=O)c1ccc([N+](=O)[O-])cc1)Cc1ccccc1"
reportedvalue = -1

[[record]]
smilestext = "CN(CCNC(=O)c1ccc([N+](=O)[O-])cc1)Cc1ccccc1"
reportedvalue = 0

[[record]]
smilestext = "COc1cccc(C(=O)NCCCN(C)Cc2ccccc2)c1"
reportedvalue = 0

[[record]]
smilestext = "CN(CCCNC(=O)c1ccc(Cl)cc1)Cc1ccccc1"
reportedvalue = 1

[[record]]
smilestext = "CN(CCCNC(=O)c1cccc(Br)c1)Cc1ccccc1"
reportedvalue = -1


* * *

Reported values of inhibition for individual entries
biological target: Mu-type opioid receptor (Homo sapiens) (UniProt P35372); assay: Antagonist activity at human mu-type opioid receptor assessed as inhibition of agonist-induced effect at 10 uM by GTPgamma[35S] binding-based assay; assay type: functional
Sequence (P35372 whole entry): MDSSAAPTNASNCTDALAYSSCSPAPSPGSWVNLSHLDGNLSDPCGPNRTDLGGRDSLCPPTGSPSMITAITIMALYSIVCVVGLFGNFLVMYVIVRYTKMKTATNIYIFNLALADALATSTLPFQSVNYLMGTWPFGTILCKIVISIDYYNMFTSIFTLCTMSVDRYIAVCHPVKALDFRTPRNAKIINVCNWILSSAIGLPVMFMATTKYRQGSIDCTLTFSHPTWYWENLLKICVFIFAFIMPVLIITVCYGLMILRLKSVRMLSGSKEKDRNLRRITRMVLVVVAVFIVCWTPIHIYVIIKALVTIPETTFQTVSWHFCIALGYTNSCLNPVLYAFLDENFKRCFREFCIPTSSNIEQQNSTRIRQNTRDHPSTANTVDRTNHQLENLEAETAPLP
quantity: inhibition

[[record]]
smilestext = "CCCc1ccc(C(=O)NCCCN(C)Cc2ccccc2)cc1"
target = "Mu-type opioid receptor (Homo sapiens) (UniProt P35372)"
quantity = "inhibition"
reportedvalue = "-4%"

[[record]]
smilestext = "CN(CCCNC(=O)c1ccc(Cl)cc1)CCc1ccccc1"
target = "Mu-type opioid receptor (Homo sapiens) (UniProt P35372)"
quantity = "inhibition"
reportedvalue = "9%"

[[record]]
smilestext = "CN(CCCNC(=O)c1ccc(Br)cc1)Cc1ccccc1"
target = "Mu-type opioid receptor (Homo sapiens) (UniProt P35372)"
quantity = "inhibition"
reportedvalue = "-9%"

[[record]]
smilestext = "CN(CCNC(=O)c1ccc(C#N)cc1)Cc1ccccc1"
target = "Mu-type opioid receptor (Homo sapiens) (UniProt P35372)"
quantity = "inhibition"
reportedvalue = "9%"

[[record]]
smilestext = "COc1cccc(C(=O)NCCCN(C)Cc2ccccc2)c1"
target = "Mu-type opioid receptor (Homo sapiens) (UniProt P35372)"
quantity = "inhibition"
reportedvalue = "20%"


* * *

biological target: Type-1 angiotensin II receptor (Homo sapiens); test: Agonist activity at recombinant human AT1 receptor […] at 10 uM by aequorin reporter based assay relative to agonist; assay type: functional
Reported values of Activity for individual entries
quantity: Activity (%)

[[record]]
smilestext = "CN(CCCNC(=O)c1ccc(Cl)cc1)CCc1ccccc1"
quantity = "Activity"
measurementunit = "%"
reportedvalue = 0

[[record]]
smilestext = "CCCc1ccc(C(=O)NCCCN(C)Cc2ccccc2)cc1"
quantity = "Activity"
measurementunit = "%"
reportedvalue = 0

[[record]]
smilestext = "CN(CCCNC(=O)c1ccc(Br)cc1)Cc1ccccc1"
quantity = "Activity"
measurementunit = "%"
reportedvalue = 1

[[record]]
smilestext = "CN(CCNC(=O)c1ccc([N+](=O)[O-])cc1)Cc1ccccc1"
quantity = "Activity"
measurementunit = "%"
reportedvalue = 0

[[record]]
smilestext = "CN(CCCNC(=O)c1cccc(Br)c1)Cc1ccccc1"
quantity = "Activity"
measurementunit = "%"
reportedvalue = 0

[[record]]
smilestext = "CN(CCNC(=O)c1ccc(Cl)cc1)Cc1ccccc1"
quantity = "Activity"
measurementunit = "%"
reportedvalue = 0


Where these numbers come from: ChEMBL document CHEMBL4130363
